# target-under-test: human ether-à-go-go-related gene (hERG) potassium channel (human, UniProt Q12809);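 note: peak tail current of the secondary pulse compared with the same well before compound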
# Sequence (Q12809 whole entry, looked up): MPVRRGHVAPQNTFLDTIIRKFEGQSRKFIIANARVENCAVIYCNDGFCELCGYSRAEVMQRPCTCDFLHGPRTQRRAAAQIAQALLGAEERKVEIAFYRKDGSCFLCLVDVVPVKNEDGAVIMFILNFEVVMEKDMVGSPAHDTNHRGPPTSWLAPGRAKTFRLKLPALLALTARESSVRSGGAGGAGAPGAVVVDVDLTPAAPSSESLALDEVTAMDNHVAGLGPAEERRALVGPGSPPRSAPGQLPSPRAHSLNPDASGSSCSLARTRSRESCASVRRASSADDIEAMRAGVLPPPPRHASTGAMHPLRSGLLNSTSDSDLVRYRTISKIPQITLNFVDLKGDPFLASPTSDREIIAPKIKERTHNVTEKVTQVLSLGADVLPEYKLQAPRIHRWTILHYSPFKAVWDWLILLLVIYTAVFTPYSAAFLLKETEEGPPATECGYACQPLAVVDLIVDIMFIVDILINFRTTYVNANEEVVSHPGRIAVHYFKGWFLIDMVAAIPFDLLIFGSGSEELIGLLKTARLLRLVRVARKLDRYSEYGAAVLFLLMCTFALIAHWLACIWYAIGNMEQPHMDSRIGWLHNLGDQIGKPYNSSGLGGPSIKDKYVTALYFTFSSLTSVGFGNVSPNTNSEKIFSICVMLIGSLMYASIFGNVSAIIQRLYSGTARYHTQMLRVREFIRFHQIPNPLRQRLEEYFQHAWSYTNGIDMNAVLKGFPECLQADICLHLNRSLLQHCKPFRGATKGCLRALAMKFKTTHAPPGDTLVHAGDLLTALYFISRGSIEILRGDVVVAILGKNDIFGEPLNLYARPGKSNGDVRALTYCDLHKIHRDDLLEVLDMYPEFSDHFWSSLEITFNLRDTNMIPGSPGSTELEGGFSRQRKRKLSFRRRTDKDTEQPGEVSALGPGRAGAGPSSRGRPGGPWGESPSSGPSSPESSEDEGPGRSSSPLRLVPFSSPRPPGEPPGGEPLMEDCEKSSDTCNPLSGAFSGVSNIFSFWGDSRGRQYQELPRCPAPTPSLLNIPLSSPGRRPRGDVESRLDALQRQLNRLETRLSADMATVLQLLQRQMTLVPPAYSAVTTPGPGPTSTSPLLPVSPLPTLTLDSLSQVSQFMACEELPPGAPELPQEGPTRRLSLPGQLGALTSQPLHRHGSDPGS
# test-summary: primary screen, population patch clamp on CHO cells stably expressing hERG; higher = less effect of the substance
Hit rate of the full screen: of about 310,000 compounds, about 14,000 (4.5%) showed an effect of 50% or more. Effects have a minus sign here. Shown is part of a subset that was picked to be rich in strong results.
metric: hERG current change (%, negative = inhibition) at 10uM

| compound | assay-result |
| --- | --- |
| Cc1ccc(C(=O)NCCN2C3=NC[C@H](C)N3C[C@H]2Cc2ccc(O)cc2)cc1Br | -8.85% |
| COC(=O)c1c(C)c2c(C)cc3ccccn3c-2c1C(=O)OC | -4.02% |
| COCCN(C(=O)CSc1nnc(-c2ccccc2C)n1C)c1c(N)n(Cc2ccccc2)c(=O)[nH]c1=O | 38.4% |
| OCCCNc1nnc(-c2ccccc2)c2ccccc12 | 2.95% |
| O=C(CCc1nc2ccccc2c(=O)[nH]1)NC1CCN(Cc2ccccc2)CC1 | -0.782% |
| Clc1ccc(-c2nnc(-c3ccc(Br)cc3)c(N3CCSCC3)n2)cc1 | -11.9% |
| COC(=O)c1ccccc1NC(=O)N1CCN(C(=O)c2ccco2)CC1 | -25% |
| O=C(O)CN1CCN(C(c2ccccc2)c2ccccc2)CC1 | 30.4% |
| O=c1nc2ccccc2c2n1CC(CN1CCN(Cc3ccccc3)CC1)N2 (centres unmarked) | -66.1% |
| O=C(NCC1CCCN(Cc2ccc3nonc3c2)C1)c1ccc(F)cc1 (centres unmarked) | -60.8% |
| COC(=O)c1ccccc1NC(=O)CN1CCOCC1 | 5.86% |
| CCC(/C=C1\Sc2ccc(OC)cc2N1CCO)=C\c1sc2ccc(OC)cc2[n+]1CCO.[Cl-] | -72.9% |
| O=S(=O)(Cc1ccccc1)NCC1CCCN(Cc2ccc3nonc3c2)C1 (centres unmarked) | -51.2% |
| O=S(=O)(Cc1ccccc1)NCC1CCCN(Cc2ccc(F)c(F)c2)C1 (centres unmarked) | -44.2% |
| OCCCNc1nc(-c2ccc(Cl)cc2)nnc1-c1ccc(Br)cc1 | -61.5% |
| COc1cc2nc(CN3CCN(C(c4ccccc4)c4ccccc4)CC3)[nH]c(=O)c2cc1OC | 1.59% |
| O=C(NCC1CCCN(Cc2ccc3nonc3c2)C1)c1cccc(C(F)(F)F)c1 (centres unmarked) | -61.5% |
| NC(=O)c1ccccc1NC(=O)CN1CCN(Cc2ccc(Cl)cc2Cl)CC1 | -76.1% |
| COc1ccc2[n-]c(S(=O)Cc3ncc(C)c(OC)c3C)nc2c1.COc1ccc2[n-]c(S(=O)Cc3ncc(C)c(OC)c3C)nc2c1.[Mg+2] (centres unmarked) | 16.3% |
| COc1ccc(C[C@H]2CN3C(=NC[C@@H]3Cc3ccc(O)cc3)N2CCNC(=O)c2ccc(C)c(Br)c2)cc1 | -74.3% |
| O=c1nc2ccccc2c2n1CC(CN1CCN(C(c3ccccc3)c3ccccc3)CC1)N2 (centres unmarked) | -81.4% |
| O=C(CN1CCN(Cc2ccccc2)CC1)Nc1ccccc1-c1ccccc1 | -89.8% |
| O=C(COc1ccccc1)N1CCN(C2CC3CCC2C3)CC1 (centres unmarked) | 7.39% |
| COc1ccc(S(=O)(=O)N2CCN(CC(=O)Nc3cc(C(F)(F)F)ccc3Cl)CC2)cc1 | -4.6% |
| COC(=O)c1ccccc1NC(=O)CN1CCN(C(=O)c2ccco2)CC1 | -51.6% |
| COc1cccc(OC)c1C(=O)Nc1ccc(N2CCCC2)cc1 | 7.52% |
| Cc1nnc(-c2ccc(Cl)cc2)nc1NCCN(C)C | -38.9% |
| O=C(NCC1CCCN(Cc2ccc3c(c2)OCCO3)C1)c1ccc2c(c1)OCO2 (centres unmarked) | -18.8% |
| Cc1c(NC(=O)C(C)OC(=O)c2cc(Cl)ccc2O)c(=O)n(-c2ccccc2)n1C (centres unmarked) | 15.3% |
